Below, each entry is listed with its recorded remaining activity at 25 µM.
Target: PYL5 (Arabidopsis thaliana, UniProt Q9FLB1)
Construct: 6X-His; made in house; host or cells: E. coli BL21[DE3]pLysS
Sequence (Q9FLB1 1-203): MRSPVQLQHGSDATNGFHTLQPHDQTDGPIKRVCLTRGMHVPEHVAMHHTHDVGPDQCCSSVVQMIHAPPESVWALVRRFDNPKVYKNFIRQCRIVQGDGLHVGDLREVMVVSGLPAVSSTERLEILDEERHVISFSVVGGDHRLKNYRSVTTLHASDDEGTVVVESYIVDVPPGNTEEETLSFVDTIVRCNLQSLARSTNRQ
Sequence (Q9CAJ0 23-511 partner): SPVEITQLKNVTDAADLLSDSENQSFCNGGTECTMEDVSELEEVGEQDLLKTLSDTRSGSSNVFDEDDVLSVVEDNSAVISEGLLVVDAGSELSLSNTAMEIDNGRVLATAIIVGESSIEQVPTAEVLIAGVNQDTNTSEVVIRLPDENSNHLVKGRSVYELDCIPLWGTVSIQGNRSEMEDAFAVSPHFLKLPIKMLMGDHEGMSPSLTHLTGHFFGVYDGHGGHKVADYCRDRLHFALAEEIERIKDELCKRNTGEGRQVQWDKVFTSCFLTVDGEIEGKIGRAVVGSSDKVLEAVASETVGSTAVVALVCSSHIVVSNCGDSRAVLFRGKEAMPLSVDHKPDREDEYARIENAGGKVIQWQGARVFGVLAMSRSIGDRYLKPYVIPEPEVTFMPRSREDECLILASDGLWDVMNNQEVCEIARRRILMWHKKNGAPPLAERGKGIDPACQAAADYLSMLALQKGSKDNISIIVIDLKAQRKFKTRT
Test: receptor-mediated PP2C (HAB1) inhibition in vitro assay
Assay type: biochemical
Details: compound at 25 μM; control without agonist = 100%
reportedProperty: remaining activity at 25 µM (%)

smilesRepresentation | resultValue
CC(C)(C(=O)NS(=O)(=O)Cc1ccc(C#N)cc1)c1cccc(C#N)c1 | 12
N#Cc1ccc(CS(=O)(=O)NC(=O)C2(c3cccc(F)c3)CCCC2)cc1 | 105
N#Cc1ccc(CS(=O)(=O)NC(=O)C2(c3cccc(C#N)c3)CC2)cc1 | 7

###

Below, each entry is listed with its recorded remaining activity at 50 µM.
target: PYL3 (Arabidopsis thaliana, UniProt Q9SSM7); construct: 6X-His; made in house; host or cells: E. coli BL21[DE3]pLysS; experiment: receptor-mediated PP2C (HAB1) inhibition in vitro assay; type: biochemical; settings: 50 uM of the test compound
Sequence (Q9SSM7 whole entry, one chain of several): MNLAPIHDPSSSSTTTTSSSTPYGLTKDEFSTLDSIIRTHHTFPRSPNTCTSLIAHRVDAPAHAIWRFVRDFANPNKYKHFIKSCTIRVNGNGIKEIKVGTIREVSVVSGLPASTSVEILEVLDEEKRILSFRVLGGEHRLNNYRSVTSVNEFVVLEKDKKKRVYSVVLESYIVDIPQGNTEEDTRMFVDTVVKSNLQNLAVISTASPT
reportedProperty: remaining activity at 50 µM

molecule | resultValue
N#Cc1ccc(CS(=O)(=O)NC(=O)C(c2ccc(F)cc2)c2ccc(F)cc2)cc1 | 100%
N#Cc1ccc(CS(=O)(=O)NC(=O)C2(c3cccs3)CCCCC2)cc1 | 95.4%
CC1CCC(C(=O)NS(=O)(=O)Cc2ccc(C#N)cc2)(c2ccc(F)cc2)CC1 (stereo not shown) | 101%
CC(C)COC(=O)NS(=O)(=O)Cc1ccc(C#N)cc1 | 92.9%

###

target: PYL5 (Arabidopsis thaliana, UniProt Q9FLB1); construct: 6X-His; made in house; host or cells: E. coli BL21[DE3]pLysS; experiment: receptor-mediated PP2C (HAB1) inhibition in vitro assay; assay type: biochemical; conditions: compound at 25 μM; control without agonist = 100%
PP2C Activity (25 μm) PYL5 of 40% or higher: true (1). Under 40%: false (0).

smilesRepresentation | classLabel
CC(C)(C(=O)NS(=O)(=O)Cc1ccc(C#N)cc1)c1cccc(F)c1 | true (1)
CC(C)(C(=O)NS(=O)(=O)Cc1ccc(C#N)cc1)c1cccc(Cl)c1 | true (1)
N#Cc1ccc(CS(=O)(=O)NC(=O)C2(c3ccccc3F)CC2)cc1 | false (0)
COc1ccccc1C1(C(=O)NS(=O)(=O)Cc2ccc(C#N)cc2)CC1 | false (0)

###

molecular target: PYL8 (Arabidopsis thaliana); construct: 6X-His; made in house; host or cells: E. coli BL21[DE3]pLysS; test: receptor-mediated PP2C (HAB1) inhibition in vitro assay; type: biochemical; conditions: compound at 25 μM; control without agonist = 100%
Sequence (Q9FGM1 whole entry, one chain of several): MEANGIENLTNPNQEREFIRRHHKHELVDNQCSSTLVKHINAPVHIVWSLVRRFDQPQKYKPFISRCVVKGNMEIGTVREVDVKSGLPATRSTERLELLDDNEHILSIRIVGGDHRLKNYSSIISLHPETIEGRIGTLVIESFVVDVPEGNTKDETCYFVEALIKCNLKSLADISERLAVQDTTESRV
PP2C Activity (25 μm) PYL8 of 80% or higher: true. Under 80%: false.

compound | classLabel
Cc1cc(C)cc(C2(C(=O)NS(=O)(=O)Cc3ccc(C#N)cc3)CC2)c1 | true
COc1ccc(C(C)(C)C(=O)NS(=O)(=O)Cc2ccc(C#N)cc2)cc1 | true
CCC(CC)(C(=O)NS(=O)(=O)Cc1ccc(C#N)cc1)c1ccc(Cl)cc1 | true
CC(C)(C)c1ccc(C2(C(=O)NS(=O)(=O)Cc3ccc(C#N)cc3)CC2)cc1 [Compound 34] | true
CC(C)(C(=O)NS(=O)(=O)Cc1ccc(C#N)cc1)c1ccccc1F | false
CC(C)(C(=O)NS(=O)(=O)Cc1ccc(C#N)cc1)c1cccc(F)c1 | false
CCC(CC)(C(=O)NS(=O)(=O)Cc1ccccc1C#N)c1ccccc1 | true
CC(C)COc1ccc(C(C)(C)C(=O)NS(=O)(=O)Cc2ccc(C#N)cc2)cc1 | true

###

Below, each entry is listed with its recorded remaining activity at 50 µM.
target: PYL8 (Arabidopsis thaliana); construct: 6X-His; made in house; host or cells: E. coli BL21[DE3]pLysS; assay: receptor-mediated PP2C (HAB1) inhibition in vitro assay; assay type: biochemical; details: 50 uM of the test compound

molecule | remaining activity at 50 µM [%]
N#Cc1ccc(CS(=O)(=O)NC(=O)C2(c3cccs3)CCCCC2)cc1 [Compound 75] | 14.9
N#Cc1ccc(CS(=O)(=O)NC(=O)C(c2ccc(F)cc2)c2ccc(F)cc2)cc1 [Compound 72] | 98.5
CC(C)COC(=O)NS(=O)(=O)Cc1ccc(C#N)cc1 [Compound 65] | 35.8
N#Cc1ccc(CS(=O)(=O)NC(=O)C2(c3ccsc3)CCCCC2)cc1 [Compound 78] | 14.3
N#Cc1ccc(CS(=O)(=O)NC(=O)C(c2ccccc2)c2ccccc2)cc1 [Compound 71] | 96.8
N#Cc1ccc(CS(=O)(=O)NC(=O)C(C2CCCCC2)C2CCCCC2)cc1 [Compound 73] | 66.1
O=C(NS(=O)(=O)Cc1ccc(F)cc1)C1(c2ccccc2)CCCCC1 [Compound 64] | 101
O=C(NS(=O)(=O)Cc1ccc([N+](=O)[O-])cc1)C1(c2ccccc2)CCCCC1 [Compound 63] | 96.6
N#Cc1ccc(CS(=O)(=O)NC(=O)C2(c3ccccc3)CCCCC2)cc1 [Compound 69] | 14.7

###

Target: PYL5 (Arabidopsis thaliana, UniProt Q9FLB1)
Construct: 6X-His; made in house; host or cells: E. coli BL21[DE3]pLysS
Sequence (Q9FLB1 1-203): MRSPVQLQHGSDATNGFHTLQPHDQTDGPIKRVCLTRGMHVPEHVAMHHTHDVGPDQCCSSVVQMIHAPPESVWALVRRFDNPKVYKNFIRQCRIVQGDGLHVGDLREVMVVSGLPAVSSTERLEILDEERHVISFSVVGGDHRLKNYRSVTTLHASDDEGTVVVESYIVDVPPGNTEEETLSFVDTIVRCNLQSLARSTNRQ
Sequence (Q9CAJ0 23-511 partner): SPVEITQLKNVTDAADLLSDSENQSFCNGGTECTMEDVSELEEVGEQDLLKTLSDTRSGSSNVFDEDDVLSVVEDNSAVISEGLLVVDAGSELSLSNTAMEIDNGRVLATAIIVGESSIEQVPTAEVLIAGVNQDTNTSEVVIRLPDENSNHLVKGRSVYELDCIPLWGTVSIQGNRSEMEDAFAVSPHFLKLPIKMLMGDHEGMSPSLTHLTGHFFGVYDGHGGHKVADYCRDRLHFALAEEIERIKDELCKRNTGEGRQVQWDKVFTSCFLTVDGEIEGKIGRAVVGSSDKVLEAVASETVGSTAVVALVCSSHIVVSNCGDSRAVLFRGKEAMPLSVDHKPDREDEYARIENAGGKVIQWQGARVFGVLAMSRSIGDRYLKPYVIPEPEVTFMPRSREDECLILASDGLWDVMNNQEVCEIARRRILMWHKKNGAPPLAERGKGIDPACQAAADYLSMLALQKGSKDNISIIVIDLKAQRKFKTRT
Assay: receptor-mediated PP2C (HAB1) inhibition in vitro assay
Type: biochemical
Details: compound at 25 μM; control without agonist = 100%
Method: A family of 62 structurally related N-acyl sulfonamides (Tables I-V) were tested for ABA agonist activity using multiple receptor-mediated PP2C inhibition in vitro assays (Park et al., 2009). […] For these in vitro receptor assays, the compounds listed were tested in in vitro PP2C inhibition assays with 50 uM of the test compound except for ABA (10 uM). IC50s were calculated from dose curves, but only for selected compounds.
Below, each entry is listed with its recorded PP2C Activity (25 μm) PYL5.

molecule | PP2C Activity (25 μm) PYL5 / %
Cc1cc(C)cc(C2(C(=O)NS(=O)(=O)Cc3ccc(C#N)cc3)CC2)c1 | 34
CC(=O)N1CCC(C(=O)NS(=O)(=O)Cc2ccc(C#N)cc2)(c2ccccc2)CC1 | 105
CCC(CC)(C(=O)NS(=O)(=O)Cc1ccc(C#N)cc1)c1ccc(Cl)cc1 | 75
CC(C)(C(=O)NS(=O)(=O)Cc1ccc(C#N)cc1)c1ccccc1F | 41
N#Cc1ccc(CS(=O)(=O)NC(=O)C2(c3ccc(C(F)(F)F)cc3)CCOCC2)cc1 | 65
N#Cc1ccc(CS(=O)(=O)NC(=O)C2(c3cccc(F)c3)CCOCC2)cc1 | 100
CCC(CC)(C(=O)NS(=O)(=O)Cc1ccccc1C#N)c1ccccc1 | 96
N#Cc1ccc(CS(=O)(=O)NC(=O)C2(c3ccc(Cl)cc3)CCC2)cc1 | 65
CC(C)(C(=O)NS(=O)(=O)Cc1ccc(C#N)cc1)c1ccc2ccccc2c1 | 68
CC(C)(C)c1ccc(C2(C(=O)NS(=O)(=O)Cc3ccc(C#N)cc3)CC2)cc1 [Compound 40] | 101
CC(C)(C(=O)NS(=O)(=O)Cc1ccc(C#N)cc1)c1cccc(Br)c1 | 43
Cc1ccc(C(C)(C)C(=O)NS(=O)(=O)Cc2ccc(C#N)cc2)cc1 | 43
CC(C)(C(=O)NS(=O)(=O)Cc1ccc(C#N)cc1)c1ccc2c(c1)OCCO2 | 95
COc1ccc(C2(C(=O)NS(=O)(=O)Cc3ccc(C#N)cc3)CCCC2)cc1 | 110
Cc1cccc(C2(C(=O)NS(=O)(=O)Cc3ccc(C#N)cc3)CC2)c1 | 41
CC(C)(C(=O)NS(=O)(=O)Cc1ccc2cccnc2c1)c1ccccc1 | 95
CCOc1ccc(C2(C(=O)NS(=O)(=O)Cc3ccc(C#N)cc3)CC2)cc1 | 99
